# Assay details: CEETOX_H295R_ANDR: CeeTox H295R High-throughput Steroidogenesis Assay for Androstenedione (ANDR) (AID 2283436);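 note: human H295R adrenal cells exposed for 48 h with androstenedione measured in medium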
# Condition context: actives raise or lower the signal
The source made the active and inactive calls. Rule for the calls: active = hit-call score of the fitted dose curve at least 0.9, where 1 is the maximum; inactive = score below 0.9.
// classify into yes (1) for active, no (0) for inactive

Called result for CCOc1cccc(-n2cc(C(=O)N3CCN(c4cc(C(=O)O)c5ccccc5c4)CC3)nc2-c2ccc(C)cc2)c1
no (0)

Please state the recorded outcome for this compound: Oc1ccc2c(c1)-c1ccccc1C2
yes (1)

Field: outcome | Entry: O=C(O)c1cccc(N(Cc2cccnc2)c2ccc(OC(F)F)c(OC(F)F)c2)c1
no (0)

What outcome does the record of this test show for Cc1ccc(N)cc1O ?
no (0)
